- Tested on: RPMI-8226
- assay: NCI tumour cell line growth inhibition, 48 h
Active and inactive are the calls of the source. Cut-off read from the data, not from the text of the source: active = GI50 up to about 1.1 µM and inactive = higher.
propertyMeasured: GI50

Form field: reported GI50 of O=C(CCCCCCCCC(=O)OCC1OC(n2cnc3c(=O)[nH]cnc32)C(O)C1O)OCC1OC(n2cnc3c(=O)[nH]cnc32)C(O)C1O (stereo not drawn)
> 100 µM (inactive)

What value of GI50 has been recorded for this entry: C/C(CC(=O)NC1=CC=C(NC(=O)C/C(C)=N\Nc2ccccc2)CC1)=N/Nc1ccccc1
> 100 µM (inactive)

Recorded GI50 for CCOC(=O)/C(=N\Nc1ccc(-n2c(C)nc3ccccc3c2=O)cc1)C(C)=O , please?
11.6 µM (inactive)

Tell me the measured GI50 of N/N=C(\CCN1CCCC1)CC(c1ccccc1)c1c(O)c2ccccc2oc1=O (stereo not drawn) , please.
> 100 µM (inactive)

Suppose we examine the molecule C[n+]1ccc(Nc2ccc(NC(=O)c3ccc(Nc4cc[n+](C)c5ccc([N+](=O)[O-])cc45)cc3[N+](=O)[O-])cc2)cc1 ; what GI50 value has been reported?
13.3 µM (inactive)

For the molecule shown here, c1ccc2c(c1)CCc1c-2n(CCN2CCOCC2)c2ccccc12 , give the reported GI50.
35.2 µM (inactive)

Entry under review: O=c1cc(-c2ccc(O)cc2)oc2cc(O[C@@H]3O[C@H](CO)[C@@H](O)[C@H](O)[C@H]3O)cc(O)c12 [APIGETRIN] . Reported GI50?
> 100 µM (inactive)

I have this molecule here, COc1cc(/C=C/c2nc(NC(=S)Nc3ccccc3)nnc2C)cc(OC)c1OC , and I need its recorded GI50.
22.7 µM (inactive)

---

- System: MDA-MB-231
- assay: NCI tumour cell line growth inhibition, 48 h
Activity calls are given as the source filed them. Rule as the data show it: active = GI50 up to about 1.1 µM and inactive = higher.
propertyMeasured: GI50

Given the molecule O=c1cc(NNc2ccccc2)[nH]c(=S)[nH]1 , what is its reported GI50?
32.1 µM (inactive)

Suppose we examine the molecule COc1ccc(C(=O)/C=C/c2ccc(OCCCCCCCCCCOc3ccc(/C=C/C(=O)c4ccc(OC)cc4)cc3)cc2)cc1 ; what GI50 value has been reported?
> 100 µM (inactive)

Returns the measured GI50 for the input molecule. Input: O=C1/C(=C\Oc2ccc(F)cc2)N2CCC1CC2
80.5 µM (inactive)

Field request: GI50 | item: CC(C)=CCC[C@@H](C)c1c2nc3ccccc3[nH]c-2c(C)c(=O)c1O
1.73 µM (inactive)

I am curious: what GI50 value has been reported for O=c1cc(-c2ccc(O)cc2)oc2cc(O[C@@H]3O[C@H](CO)[C@@H](O)[C@H](O)[C@H]3O)cc(O)c12 ?
86.1 µM (inactive)

So what's the measured GI50 for this one? CC(=O)Oc1ccc(/C=C/C(=O)NCC(NC(=O)/C=C/c2ccc(OC(C)=O)c(OC(C)=O)c2)C(=O)O)cc1OC(C)=O (stereo not given)
> 100 µM (inactive)

So what's the measured GI50 for this one? O=C1c2ccccc2-c2nnc3c(c21)-c1ccccc1C3
> 100 µM (inactive)

Please look up its GI50: Oc1ccc2ccccc2c1NCn1nc(CCCCCCCCc2nn(CNc3c(O)ccc4ccccc34)c(=S)o2)oc1=S
> 100 µM (inactive)

Reported GI50 for Cc1cc(OCc2nnc3n2S(=O)(=O)c2ccccc2N3C)ccc1Cl : what is it?
16.3 µM (inactive)

Fill blank: measured GI50 of the molecule NC(=S)C1=C(N)Oc2c(c(=O)oc3ccccc23)C1c1ccc(Br)cc1 (stereo not given) is ____.
> 100 µM (inactive)

For CO[C@H]1SC[C@H](OC(C)=O)[C@H](OC(C)=O)[C@H]1OC(C)=O , what is its reported GI50?
> 100 µM (inactive)

Entry O=C1/C(=C/c2ccc(Cl)cc2)CSC/C1=C\c1ccc(Cl)cc1 : reported GI50 = ?
4.17 µM (inactive)

# lookup: GI50 of CCOC(=O)C1(C#N)C(=O)c2cc[n+](CC[n+]3ccc4c(c3)C(=O)C(C#N)(C(=O)OCC)C4=O)cc2C1=O (stereo not given)
60.5 µM (inactive)

Form field: reported GI50 of O=C1CCCCC/C1=C\c1ccc([N+](=O)[O-])cc1
13 µM (inactive)

Give the measured GI50 of COc1cc(C)c(S(=O)(=O)N(CCCN)OCCCN)c(C)c1C .
25.5 µM (inactive)

Find the recorded GI50 belonging to Cc1nnc(N/N=C2/C(=O)Nc3ccccc32)nc1O and report it.
> 100 µM (inactive)

What measured GI50 goes with Nc1nc(=O)n(C2CC(O)C(CO)O2)c2nc(-c3ccc(-c4ccccc4)cc3)cnc12 (stereo not given) ?
21.9 µM (inactive)

Consider the molecule Clc1nc2c(C#Cc3ccccc3)ncnc2n1C1CCCCO1 (stereo not given) and give its measured GI50.
16.6 µM (inactive)

What does the data say about its GI50? Entry: COc1cc(C(=O)N(C(=S)OCc2ccccn2)c2ccccc2)cc(OC)c1OC
78.5 µM (inactive)

State the recorded GI50 for this entry: COC(OC)[C@@H]1OC[C@H](n2cnc3c(N)ncnc32)[C@H]1O
> 100 µM (inactive)
